Collected zone of inhibition at 40 µg/disc values appear next to each entry.
test system: Bacillus cereus; test: Antimicrobial activity against Bacillus cereus DSM 4384 assessed as growth inhibition at 40 ug per disc after 24 to 48 hrs (reference value: 0 millimeter); format: functional; settings: read-out: DIZ
Please format your answer as a value with the unit trailing.

Check out these entries, answers already filled in.
> print(dat)
                                   compound      system.name    value
1  C[C@@H]1O[C@@H](Oc2c(-c3ccc(O)cc3)oc3cc(O)cc(O)c3c2=O)[C@H](O)[C@H](O)[C@H]1OC(=O)/C=C/c1ccc(O)cc1  Bacillus cereus  9.67 mm
2  O=C(/C=C/c1ccc(O)c(O)c1)O[C@@H]1C[C@](O)(C(=O)O)C[C@@H](OC(=O)/C=C/c2ccc(O)c(O)c2)[C@H]1O  Bacillus cereus     0 mm
3  O=C1CCc2ccc(O)c(c2)-c2cc(ccc2O)C[C@@H](O)[C@H](O)[C@H]1O (mixture of isomers)  Bacillus cereus  10.7 mm
4  COC(=O)CC(O)(CC(=O)O)C(=O)O (stereo not drawn)  Bacillus cereus     0 mm
5             COC(=O)CC(O)(CC(=O)OC)C(=O)OC  Bacillus cereus     0 mm

## Input Query zone of inhibition at 40 µg/disc on Bacillus cereus for O=C1CCc2ccc(O[C@@H]3O[C@H](CO)[C@@H](O)[C@H](O)[C@H]3O)c(c2)-c2cc(ccc2O)C[C@@H](O)[C@H](O)[C@H]1O (mixture of isomers)
## Output 0 mm

## Input Query zone of inhibition at 40 µg/disc on Bacillus cereus for C[C@@H]1O[C@@H](Oc2c(-c3ccc(O)cc3)oc3cc(O)cc(O)c3c2=O)[C@H](O)[C@H](O)[C@H]1O [AFZELIN]
## Output 5 mm

## Input Query zone of inhibition at 40 µg/disc on Bacillus cereus for O=C(O)CC(O)(CC(=O)O)C(=O)O [CITRIC ACID]
## Output 0 mm
